Listed molecules paired with reported Specific radioactivity
Assay: Specific radioactivity of the compound.
Type: ADME
endpoint: Specific radioactivity (Ci/M)

> print(dat)
                      smiles.string                endpoint  reported.value
1     Cc1oc2ccc3c(C)cc(=O)oc3c2c1CO  Specific radioactivity            0.13
2     Cc1cc2c(ccc3c(C)cc(=O)oc32)o1  Specific radioactivity            5.11
3  COCc1c(C)oc2ccc3c(C)cc(=O)oc3c12  Specific radioactivity            0.21
4  Cc1oc2ccc3c(C)cc(=O)oc3c2c1CN.Cl  Specific radioactivity            0.13
5             O=c1ccc2ccc3occc3c2o1  Specific radioactivity            1.59
